target entity: CRBN truncate (318-426) (Homo sapiens (Human))
Sequence (Q96SW2 318-426): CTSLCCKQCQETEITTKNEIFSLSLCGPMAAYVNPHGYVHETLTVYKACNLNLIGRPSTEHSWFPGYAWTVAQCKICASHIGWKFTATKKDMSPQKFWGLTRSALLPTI
assay summary: Measurement of molecular interactions using surface plasmon resonance (SPR), Biacore T200
condition summary: 25° C., immobilized CRBN truncate, upper limit of measurement 200 μM
pKd: −log10 of the molar value.
Can you tell me pKd for the items I'm about to list?

(Q) Record request: pKd value, item COc1cccc2c1nnn2C1CCCC(=O)NC1=O (stereo not shown) [Example 255]
(A) ≤ 4.00

(Q) What would you report for CC(C)(C)OC(=O)c1ccc(N2CC[C@]3(CCCC(=O)NC3=O)CC2=O)cc1 [Example 223] ?
(A) > 4.30

(Q) What would you report for COc1ccc2nn(C3CCCC(=O)NC3=O)nc2c1 (stereo not shown) [Example 251] ?
(A) ≤ 4.00

(Q) What would you report for CC(C)(C)OC(=O)c1cccc(N2CCC3(CCCC(=O)NC3=O)CC2=O)c1 (stereo not shown) [Example 110] ?
(A) ≤ 4.00

(Q) What would you report for COC(=O)c1ccc(CN2CC3(CC(=O)N(C4CCC(=O)NC4=O)C3=O)C2)cc1 (stereo not shown) [Example 54] ?
(A) 4.00 to 4.30

(Q) What would you report for CC(C)(C)OC(=O)N1CCC(c2ccc(OC3CCCC(=O)NC3=O)cc2)CC1 (stereo not shown) [Example 276] ?
(A) ≤ 4.00

(Q) What would you report for Cc1ccc(NC(=O)Nc2ccc3nc(N4CCC5(CCCC(=O)NC5=O)C4)sc3c2)cc1Cl (stereo not shown) [Example 296] ?
(A) ≤ 4.00

(Q) What would you report for O=C1CCCN(c2nc3ccc([N+](=O)[O-])cc3s2)C(=O)N1 [Example 116] ?
(A) > 4.30

(Q) What would you report for COC(=O)c1cc2ncnc(N3CCC4(CCCC(=O)NC4=O)C3)c2s1 (stereo not shown) [Example 43] ?
(A) 4.00 to 4.30

(Q) What would you report for Cn1c(=O)n([C@@H]2CCCC(=O)NC2=O)c2cccc(I)c21 (single isomer, unassigned) [Example 211] ?
(A) 4.00 to 4.30

(Q) What would you report for N#Cc1ccc(N2CCC3(CCCC(=O)NC3=O)C2)cc1 (stereo not shown) [Example 179] ?
(A) > 4.30

(Q) What would you report for CC(C)(C)OC(=O)NCCCCCCc1ccc(-c2cn(C3CCCC(=O)NC3=O)nn2)cc1 (stereo not shown) [Example 150] ?
(A) ≤ 4.00

(Q) What would you report for CC(=O)Nc1cccc(C2CCCC(=O)NC2=O)c1 (stereo not shown) [Example 71] ?
(A) ≤ 4.00

(Q) What would you report for Cc1sc2c(c1C)C(c1ccc(Cl)cc1)=N[C@@H](CC(=O)NCCCCCCCCNC(=O)c1ccc(N3CC4(CC(=O)N(C5CCC(=O)NC5=O)C4=O)C3)nc1)c1nnc(C)n1-2 (stereo partly shown) [Example 330] ?
(A) > 4.30

(Q) What would you report for CC(C)(C)OC(=O)c1ccc(N2CC3(CCCC(=O)NC3=O)CC2=O)nc1 (stereo not shown) [Example 113] ?
(A) ≤ 4.00

(Q) What would you report for Cc1sc2c(c1C)C(c1ccc(Cl)cc1)=N[C@@H](CC(=O)NCCCCCCCCNC(=O)Cn1c(=O)n(C3CCCC(=O)NC3=O)c3ccccc31)c1nnc(C)n1-2 (stereo partly shown) [Example 332] ?
(A) > 4.30

----------
target entity: CRBN truncate (318-426) (Homo sapiens (Human))
assay summary: Measurement of molecular interactions using surface plasmon resonance (SPR), Biacore T200
condition summary: 25° C., immobilized CRBN truncate, upper limit of measurement 200 μM
measured quantity: Kd

(Q) Record request: Kd value, item Cc1sc2c(c1C)C(c1ccc(Cl)cc1)=N[C@@H](CC(=O)NCCCCCCCNc1ccc3nc(N4CCCC(=O)NC4=O)sc3c1)c1nnc(C)n1-2 [Example 312]
(A) < 50 µM

(Q) What would you report for Cc1cc(N2CCC3(CCCC(=O)NC3=O)C2)ccc1[N+](=O)[O-] (stereo not shown) [Example 81] ?
(A) ≥ 100 µM

(Q) What would you report for Cc1sc2c(c1C)C(c1ccc(Cl)cc1)=N[C@@H](CC(=O)NCCCCCCCCNC(=O)CCc1cccc3c1n(C)c(=O)n3C1CCCC(=O)NC1=O)c1nnc(C)n1-2 (stereo partly shown) [Example 333] ?
(A) < 50 µM

(Q) What would you report for CC(C)(C)OC(=O)NCCc1ccc(S(=O)(=O)N2CC3(CC(=O)N(C4CCC(=O)NC4=O)C3=O)C2)cc1 (stereo not shown) [Example 278] ?
(A) ≥ 100 µM

----------
target entity: CRBN truncate (318-426) (Homo sapiens (Human))
assay summary: Measurement of molecular interactions using surface plasmon resonance (SPR), Biacore T200
condition summary: 25° C., immobilized CRBN truncate, upper limit of measurement 200 μM
pKd: −log10 of the molar value.
Can you tell me pKd for the items I'm about to list?

(Q) Record request: pKd value, item COc1ccc2sc(N3CC4(CC(=O)N(C5CCC(=O)NC5=O)C4=O)C3)nc2c1 (stereo not drawn)
(A) > 4.30

(Q) What would you report for CC(C)(C)OC(=O)N1CCN(C(=O)c2ccc(N3CCC4(CCCC(=O)NC4=O)C3)nc2)CC1 (stereo not drawn) ?
(A) ≤ 4.00

(Q) What would you report for CC(C)(C)OC(=O)NCCCCCCn1ccc2c(C(=O)N3CCC4(CCCC(=O)NC4=O)C3)cccc21 (stereo not drawn) ?
(A) 4.00 to 4.30

----------
target entity: CRBN truncate (318-426) (Homo sapiens (Human))
assay summary: Measurement of molecular interactions using surface plasmon resonance (SPR), Biacore T200
condition summary: 25° C., immobilized CRBN truncate, upper limit of measurement 200 μM
Can you tell me Kd for the items I'm about to list?

(Q) Record request: Kd value, item CC(C)(C)OC(=O)N1CCN(c2ccnc(N3CCC4(CCCC(=O)NC4=O)C3)c2)CC1 (centres unmarked)
(A) ≥ 100 µM

(Q) What would you report for COc1ccc2nc(N3CC4(CC(=O)N(C5CCC(=O)NC5=O)C4=O)C3)sc2c1 (centres unmarked) ?
(A) < 50 µM

(Q) What would you report for CC(C)(C)OC(=O)c1ccc(C2(F)CCCC(=O)NC2=O)cc1 (centres unmarked) ?
(A) ≥ 100 µM

(Q) What would you report for Nc1nccc(N2CCC3(CCCC(=O)NC3=O)C2)n1 (centres unmarked) ?
(A) ≥ 100 µM

(Q) What would you report for CC(C)(C)OC(=O)NCCCCCCCn1c(=O)n(C2CCCC(=O)NC2=O)c2ncccc21 (centres unmarked) ?
(A) ≥ 100 µM

(Q) What would you report for COc1ccc2nnn(C3CCCC(=O)NC3=O)c2c1 (centres unmarked) ?
(A) ≥ 100 µM

(Q) What would you report for CC(C)(C)OC(=O)NCCCCCCCCn1ccc2c(N3CCC4(CCCC(=O)NC4=O)C3)ncnc21 (centres unmarked) ?
(A) 50 to 100 µM

(Q) What would you report for CC(C)(C)OC(=O)N1CCC(c2cn(C3CCCC(=O)NC3=O)nn2)CC1 (centres unmarked) ?
(A) ≥ 100 µM

----------
target entity: CRBN truncate (318-426) (Homo sapiens (Human))
assay summary: Measurement of molecular interactions using surface plasmon resonance (SPR), Biacore T200
Format: binding
condition summary: 25° C., immobilized CRBN truncate, upper limit of measurement 200 μM
pKd: −log10 of the molar value.
measured quantity: pKd

(Q) Lab note: need pKd for Cn1ccc2c(C(=O)N3CCC4(CCCC(=O)NC4=O)C3)cccc21 (stereo not shown) on CRBN truncate (318-426) (Homo sapiens (Human)), anyone have it?
(A) ≤ 4.00

(Q) What would you report for "Nc1ccc2nc(N3CCCC(=O)NC3=O)sc2c1" ?
(A) ≤ 4.00

(Q) What would you report for CC(C)(C)OC(=O)NCCOCCOCCn1c(=O)n(C2CCCC(=O)NC2=O)c2ccccc21 (stereo not shown) ?
(A) ≤ 4.00

(Q) What would you report for CC(C)(C)OC(=O)NCCn1c(=O)n(C2CCCC(=O)NC2=O)c2ccccc21 (stereo not shown) ?
(A) ≤ 4.00

(Q) What would you report for CN(C1CCCC(=O)NC1=O)S(=O)(=O)c1cccc(Cl)c1 (stereo not shown) ?
(A) ≤ 4.00

(Q) What would you report for COC(=O)c1cccc(CN2CCC3(CCCC(=O)NC3=O)C2)c1 (stereo not shown) ?
(A) ≤ 4.00

(Q) What would you report for CC(C)(C)OC(=O)Nc1ccccc1-c1cn(C2CCCC(=O)NC2=O)nn1 (stereo not shown) ?
(A) ≤ 4.00

(Q) What would you report for Cc1sc2c(c1C)C(c1ccc(Cl)cc1)=N[C@@H](CC(=O)NCCCCCCCCNC(=O)CCc1ccc3c(=O)n(C4CCCC(=O)NC4=O)c(=O)n(C)c3c1)c1nnc(C)n1-2 (stereo partly shown) ?
(A) > 4.30

(Q) What would you report for Cc1sc2c(c1C)C(c1ccc(Cl)cc1)=N[C@@H](CC(=O)NCCCCCCCCCCC(=O)N1CCC(c3cnc(N4CCC5(CCCC(=O)NC5=O)C4)nc3)CC1)c1nnc(C)n1-2 (stereo partly shown) ?
(A) > 4.30

(Q) What would you report for Cn1ccc2c(N3CC4(CC(=O)N(C5CCC(=O)NC5=O)C4=O)C3)ncnc21 (stereo not shown) ?
(A) ≤ 4.00
